meta.source: patent US20230348493A1

Here, each record is paired with measured Maximum agonistic efficacy (%) data.
ASSAY SYSTEM: NMDA receptor (Rattus norvegicus)
Construct: After the rats were decapitated, the prefrontal cortex and hippocampus were rapidly separated on ice; from tissue; host or cells: SD male rat prefrontal cortex and hippocampus, crude synaptosomes
ASSAY: NMDA receptor agonistic properties in rat crude synaptosomal proteins (maximum [3H]-MK-801 binding vs 1 mM glycine)
Assay type: biochemical
CONDITION LABEL: maximum [3H]-MK-801 binding % relative to 1 mM glycine; 50 μM glutamic acid

- COMPOUND: "C[C@@H](O)[C@H](N)C(=O)N1CC2(C1)N[C@H](C(=O)N1CCOCC1)CS2.Cl [A-409]"
  ASSAY SYSTEM: "NMDA receptor (Rattus norvegicus)"
  UNIT TAG: "%"
  Maximum agonistic efficacy (%): 36
- COMPOUND: "C[C@@H](O)[C@H](NC(=O)[C@@H]1CSC2(CNC2)N1)C(N)=O.Cl [A-370]"
  ASSAY SYSTEM: "NMDA receptor (Rattus norvegicus)"
  UNIT TAG: "%"
  Maximum agonistic efficacy (%): 46
- COMPOUND: "CC(C)C(=O)N1CCSC12CCCN(C(=O)[C@@H](N)[C@@H](C)O)C2.Cl (stereo partly drawn) [A-122]"
  ASSAY SYSTEM: "NMDA receptor (Rattus norvegicus)"
  UNIT TAG: "%"
  Maximum agonistic efficacy (%): 38
- COMPOUND: "CC(C)(C)OC(=O)N1CCC2(CC1)NCCS2 [A-030]"
  ASSAY SYSTEM: "NMDA receptor (Rattus norvegicus)"
  UNIT TAG: "%"
  Maximum agonistic efficacy (%): 39
- COMPOUND: "CC(C)C(=O)N1CCSC12CNC2.Cl [A-093]"
  ASSAY SYSTEM: "NMDA receptor (Rattus norvegicus)"
  UNIT TAG: "%"
  Maximum agonistic efficacy (%): 65
- COMPOUND: "CC(C)[C@H](N)C(=O)N1CC2(C1)NCCS2.Cl [A-008]"
  ASSAY SYSTEM: "NMDA receptor (Rattus norvegicus)"
  UNIT TAG: "%"
  Maximum agonistic efficacy (%): 35
- COMPOUND: "C[C@@H](O)[C@H](N)C(=O)N1CCC2(CC1)N[C@H](C(=O)N1CCCCC1)CS2.Cl [A-437]"
  ASSAY SYSTEM: "NMDA receptor (Rattus norvegicus)"
  UNIT TAG: "%"
  Maximum agonistic efficacy (%): 42
- COMPOUND: "C[C@@H](O)[C@H](N)C(=O)N1CCC2(C1)SCCN2C.Cl (stereo partly drawn) [A-234]"
  ASSAY SYSTEM: "NMDA receptor (Rattus norvegicus)"
  UNIT TAG: "%"
  Maximum agonistic efficacy (%): 75
- COMPOUND: "CC(C)C(=O)N1CCSC12CCN(C(=O)[C@@H](N)[C@@H](C)O)CC2.Cl [A-114]"
  ASSAY SYSTEM: "NMDA receptor (Rattus norvegicus)"
  UNIT TAG: "%"
  Maximum agonistic efficacy (%): 35
- COMPOUND: "CC(C)C(=O)N1CCC2(CC1)SCCN2C(=O)[C@@H](N)[C@@H](C)O.Cl [A-358]"
  ASSAY SYSTEM: "NMDA receptor (Rattus norvegicus)"
  UNIT TAG: "%"
  Maximum agonistic efficacy (%): 78
- COMPOUND: "C[C@@H](O)[C@H](N)C(=O)N1CCC2(C1)NCCS2.Cl (stereo partly drawn) [A-020]"
  ASSAY SYSTEM: "NMDA receptor (Rattus norvegicus)"
  UNIT TAG: "%"
  Maximum agonistic efficacy (%): 42
- COMPOUND: "CC(=O)N1CCSC12CCN(C(=O)[C@@H](N)[C@@H](C)O)CC2.Cl [A-082]"
  ASSAY SYSTEM: "NMDA receptor (Rattus norvegicus)"
  UNIT TAG: "%"
  Maximum agonistic efficacy (%): 45
- COMPOUND: "C[C@@H](O)[C@H](N)C(=O)N1CCC2(CC1)N[C@H](C(N)=O)CS2.Cl [A-274]"
  ASSAY SYSTEM: "NMDA receptor (Rattus norvegicus)"
  UNIT TAG: "%"
  Maximum agonistic efficacy (%): 55
- COMPOUND: "CC(C)(C)OC(=O)N1CCCC2(C1)NCCS2 (stereo not drawn) [A-044]"
  ASSAY SYSTEM: "NMDA receptor (Rattus norvegicus)"
  UNIT TAG: "%"
  Maximum agonistic efficacy (%): 28
- COMPOUND: "C[C@@H](O)[C@H](N)C(=O)N1CC2(C1)SCCN2C.Cl [A-226]"
  ASSAY SYSTEM: "NMDA receptor (Rattus norvegicus)"
  UNIT TAG: "%"
  Maximum agonistic efficacy (%): 45
- COMPOUND: "C[C@@H](O)[C@H](N)C(=O)N1CCCC2(C1)SCCN2C(=O)[C@@H](N)[C@@H](C)O.Cl (stereo partly drawn) [A-367]"
  ASSAY SYSTEM: "NMDA receptor (Rattus norvegicus)"
  UNIT TAG: "%"
  Maximum agonistic efficacy (%): 39
- COMPOUND: "CC(C)CN1CCSC12CN(C(=O)[C@@H](N)[C@@H](C)O)C2.Cl [A-162]"
  ASSAY SYSTEM: "NMDA receptor (Rattus norvegicus)"
  UNIT TAG: "%"
  Maximum agonistic efficacy (%): 38
- COMPOUND: "C[C@@H](O)[C@H](N)C(=O)N1CCC2(CC1)NCCS2.Cl [A-034]"
  ASSAY SYSTEM: "NMDA receptor (Rattus norvegicus)"
  UNIT TAG: "%"
  Maximum agonistic efficacy (%): 25
- COMPOUND: "CC(C)[C@H](N)C(=O)N1CC2(C1)N[C@H](C(N)=O)CS2.Cl [A-260]"
  ASSAY SYSTEM: "NMDA receptor (Rattus norvegicus)"
  UNIT TAG: "%"
  Maximum agonistic efficacy (%): 26
- COMPOUND: "C[C@@H](O)[C@H](N)C(=O)N1CCC2(C1)N[C@H](C(=O)N1CCCCC1)CS2.Cl (stereo partly drawn) [A-421]"
  ASSAY SYSTEM: "NMDA receptor (Rattus norvegicus)"
  UNIT TAG: "%"
  Maximum agonistic efficacy (%): 45
- COMPOUND: "C[C@@H](O)[C@H](N)C(=O)N1CCCC2(C1)N[C@H](C(N)=O)CS2.Cl (stereo partly drawn) [A-282]"
  ASSAY SYSTEM: "NMDA receptor (Rattus norvegicus)"
  UNIT TAG: "%"
  Maximum agonistic efficacy (%): 35
